Value source: paper PMC9090415

# system under test: P. falciparum apicoplast DNA polymerase (Pf-apPOL) (Plasmodium falciparum, UniProt Q8ILY1)
# Sequence (Q8ILY1 entry or part of it): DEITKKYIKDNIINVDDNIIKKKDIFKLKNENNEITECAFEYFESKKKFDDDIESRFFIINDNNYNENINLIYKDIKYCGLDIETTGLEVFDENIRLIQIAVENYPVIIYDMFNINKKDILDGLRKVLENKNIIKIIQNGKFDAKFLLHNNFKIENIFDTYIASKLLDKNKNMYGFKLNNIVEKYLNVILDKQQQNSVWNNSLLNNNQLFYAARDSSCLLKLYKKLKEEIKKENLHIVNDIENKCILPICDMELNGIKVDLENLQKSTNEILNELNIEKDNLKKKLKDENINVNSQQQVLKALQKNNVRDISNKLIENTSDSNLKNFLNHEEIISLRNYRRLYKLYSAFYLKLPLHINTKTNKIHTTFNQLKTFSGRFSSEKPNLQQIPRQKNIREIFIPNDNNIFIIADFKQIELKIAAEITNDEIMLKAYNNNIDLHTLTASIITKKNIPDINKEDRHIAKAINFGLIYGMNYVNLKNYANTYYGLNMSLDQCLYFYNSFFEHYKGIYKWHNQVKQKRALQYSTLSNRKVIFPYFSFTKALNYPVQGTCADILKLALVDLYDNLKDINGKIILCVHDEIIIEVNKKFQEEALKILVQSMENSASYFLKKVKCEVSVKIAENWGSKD
# procedure summary: Fluorescence-based high-throughput DNA polymerase assay (molecular beacon), primary screen and dose-response;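 note: test concentration in µM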
# Format: biochemical
# run conditions: DRC-1; 180'; concentration 10
endpoint name: % inhibition apPOL 180' (%)
// return numeric value only (unit: %, not printed)

Give recorded % inhibition apPOL 180'. CN(C)C1C(c2ccccc2)=C(c2ccccc2)SC(c2ccccc2)C1[N+](=O)[O-] (centres unmarked)
32.8138

Give recorded % inhibition apPOL 180'. Cc1ccc(-n2nnc(C(=O)O)c2-c2ccccn2)c(F)c1
5.348

Give recorded % inhibition apPOL 180'. COc1ccc(-c2cc(=O)c3cc(O)ccc3o2)cc1OC
16.442

Give recorded % inhibition apPOL 180'. O=C(O)c1ccc(-c2nc3cc(-c4ccc5nc(-c6ccc(C(=O)O)cc6)[nH]c5c4)ccc3[nH]2)cc1
61.3297

Give recorded % inhibition apPOL 180'. COc1ccc(-c2c(C(F)(F)F)nn3c(=O)cc(-c4cccc([N+](=O)[O-])c4)[nH]c23)cc1
38.3358

Give recorded % inhibition apPOL 180'. CN(C)C=CC(=O)c1ccccn1
10.9691

Give recorded % inhibition apPOL 180'. O=C(CSc1nc2ccccc2s1)Nc1ncc([N+](=O)[O-])s1
24.654

Give recorded % inhibition apPOL 180'. Oc1ccc(N=Nc2ccccc2)c(O)c1
-2.239

Give recorded % inhibition apPOL 180'. COc1ccc(C)cc1NC(=O)Cn1ccc2c(=O)[nH]ccc21 [Molecule 15, COc1ccc(cc1NC(=O)Cn1ccc2c1cc[nH]c2=O)C]
30.4146

Give recorded % inhibition apPOL 180'. COc1ccc(C(=O)N2CCc3c(nc4cc(-c5ccccc5Cl)[nH]n4c3=O)C2)cn1
20

Give recorded % inhibition apPOL 180'. Cc1ccc(NC(=O)Cn2ccc3c(=O)[nH]ccc32)cc1F [Molecule 48, O=C(Cn1ccc2c1cc[nH]c2=O)Nc1ccc(c(c1)F)C]
10.5149

Give recorded % inhibition apPOL 180'. Cc1nc(/N=N/c2ccc(C(=O)[O-])cc2)c(COP(=O)([O-])[O-])c(C=O)c1O.[Na+].[Na+].[Na+]
42.4654

Give recorded % inhibition apPOL 180'. Cc1ccc(CCNC(=O)c2cnn3c(O)c(Cc4ccccc4F)c(C)nc23)cc1
-12.5375

Give recorded % inhibition apPOL 180'. COc1cccc(C(=O)N2CCc3c(nc4cc(-c5ccccc5)[nH]n4c3=O)C2)c1OC
32

Give recorded % inhibition apPOL 180'. COc1cc(/C=C2\S/C(=N/C(C)=O)NC2=O)cc(Br)c1OCC(=O)O
-2.004

Give recorded % inhibition apPOL 180'. Cc1ccc(C(=O)/C=C/C=C/C=C/N(C)C)o1
46.7432

Give recorded % inhibition apPOL 180'. O=C(NC(C(Cl)Cl)S(=O)(=O)c1ccccc1)c1ccccc1 (centres unmarked)
29.3225

Give recorded % inhibition apPOL 180'. O=C(Nc1nnc(-c2ccno2)o1)c1ccc2c(c1)OCO2
-10.0119

Give recorded % inhibition apPOL 180'. COc1ccc(-c2n[nH]cc2Oc2ccc(Cl)cc2)c(O)c1
25.5956

Give recorded % inhibition apPOL 180'. O=c1cc(-c2ccccc2Cl)oc2c(NS(=O)(=O)c3cc(Cl)cc(Cl)c3O)ccc(O)c12
-7.477

Give recorded % inhibition apPOL 180'. CN1CC(=Cc2ccco2)C(=O)C(=Cc2ccco2)C1
17.702

Give recorded % inhibition apPOL 180'. CCN1C(=O)C(=Cc2cccc(OC)c2O)SC1=S
27.7441

Give recorded % inhibition apPOL 180'. O=C(c1c[nH]c2ncccc12)N1CCCC1 [Molecule 63, O=C(c1c[nH]c2c1cccn2)N1CCCC1]
12.4312

Give recorded % inhibition apPOL 180'. O=C1c2ccccc2C(=O)N1Oc1ccc([N+](=O)[O-])c([N+](=O)[O-])c1
7.291

Give recorded % inhibition apPOL 180'. Cc1ccc(NC(=O)C2CCN(C(=O)c3cc4ccsc4[nH]3)CC2)c(Br)c1
30

Give recorded % inhibition apPOL 180'. O=C(Cc1cc(=O)[nH]c(SCc2ccccc2)n1)Nc1ccc2c(c1)OCO2
5.286

Give recorded % inhibition apPOL 180'. O=C(O)CC1SC(c2ccc3c(c2)OCO3)=NC1=O (centres unmarked)
2.363

Give recorded % inhibition apPOL 180'. CCOc1cccc2cc(C(=O)Nc3nnc(-c4ccno4)o3)oc12
24.8097

Give recorded % inhibition apPOL 180'. O=c1cc(CN2CCCCC2)c2cc3c(cc2o1)OCO3
32.8614

Give recorded % inhibition apPOL 180'. O=C(O)CC1=NN(c2cccc([N+](=O)[O-])c2)C(=O)C1
15.9728

Give recorded % inhibition apPOL 180'. O=C1C(=Cc2ccccc2O)Oc2ccc(O)cc21
21.7009

Give recorded % inhibition apPOL 180'. O=C(O)c1c(F)c(F)c(-c2c(F)c(F)c(C(=O)O)c(F)c2F)c(F)c1F
7.634
